biological target: full-length WT STING (Homo sapiens (Human), UniProt Q86WV6, H232R); assay: 3H-cGAMP filtration binding assay (WT STING); settings: competition with tritiated cGAMP, WT STING membrane
Sequence (Q86WV6 other isoform, or with tags, fused parts or gaps H232R (already in the parent)): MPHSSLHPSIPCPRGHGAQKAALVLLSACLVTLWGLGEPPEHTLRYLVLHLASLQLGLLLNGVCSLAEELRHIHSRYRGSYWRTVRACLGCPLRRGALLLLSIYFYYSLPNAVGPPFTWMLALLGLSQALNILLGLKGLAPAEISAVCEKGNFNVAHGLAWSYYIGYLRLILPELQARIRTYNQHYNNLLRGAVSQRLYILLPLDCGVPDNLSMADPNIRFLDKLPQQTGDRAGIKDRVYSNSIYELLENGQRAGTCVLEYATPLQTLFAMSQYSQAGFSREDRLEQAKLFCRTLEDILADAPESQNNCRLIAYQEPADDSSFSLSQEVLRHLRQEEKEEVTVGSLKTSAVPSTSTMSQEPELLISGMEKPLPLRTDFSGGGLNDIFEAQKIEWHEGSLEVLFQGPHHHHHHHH
assay readout: pEC50
Lab note: report pEC50 as minus log10 of the concentration in molar units, number only.

// solved cases for pEC50 follow
- compound: "CCC(CC(=O)c1cc2c(F)c(OC)c(OC)cc2s1)C(=O)O (centres unmarked)"
  endpoint result: 5.67
- compound: "COc1cc2cc(C(=O)CC(C(=O)O)C(C)C)sc2cc1OC (centres unmarked)"
  endpoint result: 4.95
- compound: "COc1cc2cc(C(=O)CCC(=O)O)sc2cc1Br"
  endpoint result: 4.96
- compound: "COCC(CC(=O)c1cc2cc(OC)c(OC)cc2s1)C(=O)O (centres unmarked)"
  endpoint result: 4.83

Okay, now this compound:
Prompt: Endpoint output: pEC50 of "COc1cc2cc(C(=O)CCC(=O)O)sc2cc1OC" . Value?
Completion: 5.61
